assay_info: cAMP Responsive Elements (CRE) small molecule agonists, cell-based qHTS assay: qHTS cell viability counter screen (AID 2060914);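 also: viability read after 3 h of compound exposure; % is scaled to controls: 0 for no effect and ±100 for the full control effect; nearly all actives have a fitted effect of over 50% in size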
reported_conditions: CRE-bla HEK293T viability, CellTiter-Glo luminescence, 5 h; series mostly up to 92.4 µM
Inconclusive results are not listed. Activity calls are given as the source filed them. Calls follow the shape of the dose curve; as a rule, active = well fitted cell-killing curve with a large enough effect in the repeat runs; inconclusive = weak or mixed curves, or effect the other way; inactive = flat fitted curve, though single readings scatter.
assay_endpoint: activity change, negative = cytotoxicity

Consider the following illustrative entries.
{"compound": "CCCCCCCCCCCCCCC(=O)O", "activity change, negative = cytotoxicity": "inactive"}
{"compound": "O=P(O)(O)O", "activity change, negative = cytotoxicity": "inactive"}
{"compound": "CCn1nc(C)c2c1C(=O)NCC(c1ccc(O)cc1)=N2", "activity change, negative = cytotoxicity": "inactive"}
{"compound": "O=c1cc(-c2ccccc2)oc2cc(O)cc(O)c12", "activity change, negative = cytotoxicity": "inactive"}
{"compound": "COc1cc(C(=S)N2CCOCC2)cc(OC)c1OC", "activity change, negative = cytotoxicity": "inactive"}

# compound "BrC/C=C/CBr" ; its activity change, negative = cytotoxicity = 3.61% [at 18.9 µM] (inactive)

# compound "N[C@@H](CSSC[C@H](N)C(=O)O)C(=O)O" ; its activity change, negative = cytotoxicity = 11.2% [at 0.349 µM] (inactive)

# compound "Cc1ccc(O)c(O)c1" ; its activity change, negative = cytotoxicity = inactive

# compound "COC[C@H](c1ccc(C(F)(F)F)cc1)N1CCN(C2(C)CCN(C(=O)c3c(C)ncnc3C)CC2)C[C@H]1C" ; its activity change, negative = cytotoxicity = inactive

# compound "O=C1NC(=O)c2ccccc21" ; its activity change, negative = cytotoxicity = inactive

# compound CC1CCC(=O)C1=O (stereo not drawn) ; its activity change, negative = cytotoxicity = inactive

# compound "OCCOCCN1CCN(C2=Nc3ccccc3Sc3ccccc32)CC1" ; its activity change, negative = cytotoxicity = inactive

# compound "COc1ccccc1N1CCN(CCCCNC(=O)c2ccc(-c3ccc(C(C)=O)cc3)cc2)CC1" ; its activity change, negative = cytotoxicity = inactive
